procedure text: Inhibition of V-ATPase (unknown origin)
Design: species or system Homo sapiens
property label: pIC50
Value format note: pIC50 is -log10 of concentration (mol/L); just state the number.

For "CC[C@@H](C)[C@@H]1NC(=O)[C@H]2CCCN2C(=O)[C@@H](CC(C)C)OC(=O)CCNC(=O)[C@H](C)N(C)C(=O)[C@H](C(C)C)N(C)C1=O" , what is its reported pIC50?
5.27
